Listing of entries alongside the reported IC50.
# Measured target: FASN enzyme isolated from SKBr3 cells (Homo sapiens (Human), UniProt P49327)
# Protocol text: FASN biochemical activity (fluorescence measurement of CoA release, CPM dye)
Just the number please, in nM, no unit attached.

N#Cc1ccc(C2(F)CCN(C(=O)c3ccc(Cl)c(NC(=O)c4ccc(N5CCC5)nc4)c3)CC2)nc1 [Compound 001-57]	30
CCc1nnc(-c2cc(C(=O)N3CCC(c4ccc(C#N)cc4)CC3)c(C)cc2C2CC(F)(F)C2)o1 [Compound 001-231]	300

# evaluate next
Request: GET /values?readout=IC50&system=FASN enzyme isolated from SKBr3 cells (Homo sapiens (Human), UniProt P49327)&item= CCc1cc(C)c(-c2ncc(C3CCOC3)[nH]2)cc1C(=O)N1CCC(c2ccc(C#N)cc2)CC1 (stereo not shown) [Compound 001-192]
Response: 300
